- assayName: Biodistribution study in LNCaP tumor-bearing mice (Th227 counted in organs)
- Type: in vivo, SCID mice
- experimentalConditions: 4 hr; 1500 kBq/kg
Th-227 in Blood values for the compounds below.

{"compound": "O=C([O-])CN1CCN(CC(=O)[O-])CCN(CC(=O)NCc2ccc(C(=O)N[C@@H](Cc3ccc4ccccc4n3)C(=O)NCCCC[C@H](NC(=O)N[C@@H](CCC(=O)O)C(=O)O)C(=O)O)nc2)CCN(CC(=O)[O-])CC1.[227Th+4] [Example 34-B-227Th]", "Th-227 in Blood [% ID Th-227/g organ]": 0.07}
{"compound": "O=C([O-])CN1CCN(CC(=O)[O-])CCN(CC(=O)NCC2CCC(C(=O)NC(Cc3ccc4ccccc4c3)C(=O)NCCCCC(NC(=O)NC(CCC(=O)O)C(=O)O)C(=O)O)CC2)CCN(CC(=O)[O-])CC1.[227Th+4] [Example 1-B-D-227Th]", "Th-227 in Blood [% ID Th-227/g organ]": 0.20}
{"compound": "O=C([O-])CN1CCN(CC(=O)[O-])CCN(CC(=O)NCC2CCC(C(=O)NC(Cc3ccc4ccccc4c3)C(=O)NCCCCC(NC(=O)NC(CCC(=O)O)C(=O)O)C(=O)O)CC2)CCN(CC(=O)[O-])CC1.[227Th+4] (stereo not shown) [Example 1-B-227Th]", "Th-227 in Blood [% ID Th-227/g organ]": 1.05}
{"compound": "Cc1cc(C(=O)NCCN(CCCN(CCNC(=O)c2cc(C)n(CC(=O)O)c(=O)c2[O-])CCNC(=O)c2cc(C)n(CC(=O)NCC3CCC(C(=O)NC(Cc4cnc5ccccc5c4)C(=O)NCCCCC(NC(=O)NC(CCC(=O)O)C(=O)O)C(=O)O)CC3)c(=O)c2[O-])CCNC(=O)c2cc(C)n(CC(=O)NCC3CCC(C(=O)NC(Cc4cnc5ccccc5c4)C(=O)NCCCCC(NC(=O)NC(CCC(=O)O)C(=O)O)C(=O)O)CC3)c(=O)c2[O-])c([O-])c(=O)n1CC(=O)O.[227Th+4] (stereo not shown) [Example 22-C dimer-227Th]", "Th-227 in Blood [% ID Th-227/g organ]": 0.10}

---

Th-227 in kidney values for the compounds below.
- assayName: Biodistribution study in LNCaP tumor-bearing mice (Th227 counted in organs)
- Format: in vivo, SCID mice
- experimentalConditions: 4 hr; 1500 kBq/kg
metric: Th-227 in kidney (% ID Th-227/g organ)

{"compound": "O=C([O-])CN1CCN(CC(=O)[O-])CCN(CC(=O)NCC2CCC(C(=O)NC(Cc3ccc4ccccc4c3)C(=O)NCCCCC(NC(=O)NC(CCC(=O)O)C(=O)O)C(=O)O)CC2)CCN(CC(=O)[O-])CC1.[227Th+4] (stereo not shown) [Example 1-B-227Th]", "metric": "Th-227 in kidney", "scaleUnit": "% ID Th-227/g organ", "reportedValue": 32.13}
{"compound": "Cc1cc(C(=O)NCCN(CCCN(CCNC(=O)c2cc(C)n(CC(=O)O)c(=O)c2[O-])CCNC(=O)c2cc(C)n(CC(=O)NCC3CCC(C(=O)NC(Cc4cnc5ccccc5c4)C(=O)NCCCCC(NC(=O)NC(CCC(=O)O)C(=O)O)C(=O)O)CC3)c(=O)c2[O-])CCNC(=O)c2cc(C)n(CC(=O)NCC3CCC(C(=O)NC(Cc4cnc5ccccc5c4)C(=O)NCCCCC(NC(=O)NC(CCC(=O)O)C(=O)O)C(=O)O)CC3)c(=O)c2[O-])c([O-])c(=O)n1CC(=O)O.[227Th+4] (stereo not shown) [Example 22-C dimer-227Th]", "metric": "Th-227 in kidney", "scaleUnit": "% ID Th-227/g organ", "reportedValue": 45.26}
{"compound": "O=C([O-])CN1CCN(CC(=O)[O-])CCN(CC(=O)NCC2CCC(C(=O)NC(Cc3ccc4ccccc4c3)C(=O)NCCCCC(NC(=O)NC(CCC(=O)O)C(=O)O)C(=O)O)CC2)CCN(CC(=O)[O-])CC1.[227Th+4] [Example 1-B-D-227Th]", "metric": "Th-227 in kidney", "scaleUnit": "% ID Th-227/g organ", "reportedValue": 2.97}
{"compound": "O=C([O-])CN1CCN(CC(=O)[O-])CCN(CC(=O)NCc2ccc(C(=O)N[C@@H](Cc3ccc4ccccc4n3)C(=O)NCCCC[C@H](NC(=O)N[C@@H](CCC(=O)O)C(=O)O)C(=O)O)nc2)CCN(CC(=O)[O-])CC1.[227Th+4] [Example 34-B-227Th]", "metric": "Th-227 in kidney", "scaleUnit": "% ID Th-227/g organ", "reportedValue": 65.52}
